- ASSAY_COMMENT: Partition coefficient of drugs and BAK in macroporous pHEMA gel
- Assay type: physicochemical
- CONDITIONS: 250 mg gel soaked in 12 mL drug or BAK solution in PBS, 15 days; mean ± SD, n = 3
Where a name gives a salt, the structure may show the parent alone.
Can you tell me Partition coefficient in macroporous pHEMA gel for the items I'm about to list?
One number for each entry.

Check out these entries, answers already filled in.
>>> measured_number("CCN[C@H]1C[C@H](C)S(=O)(=O)c2sc(S(N)(=O)=O)cc21 [Dorzolamide, dorzolamide hydrochloride]")
7.59
>>> measured_number("CC(C)OC(=O)CCC/C=C\\C[C@@H]1[C@@H](CC[C@@H](O)CCc2ccccc2)[C@H](O)C[C@@H]1O [Latanoprost, latanoprost]")
90.18
>>> measured_number("CC(C)(C)NC[C@H](O)COc1nsnc1N1CCOCC1 [Timolol, timolol maleate]")
6.49

Consider the record given below.
Supply Partition coefficient in macroporous pHEMA gel value. Item: C[C@@H]1C[C@H]2[C@@H]3CCC4=CC(=O)C=C[C@]4(C)[C@@]3(F)[C@@H](O)C[C@]2(C)[C@@]1(O)C(=O)CO [Dexamethasone, dexamethasone] 33.53
